System: Mus musculus
Test: Analgesic activity in ICR mouse assessed as pain threshold variation at 25 umol/kg, po administered as single dose measured after 120 mins by tail flick test relative to control
Assay type: functional
Mark each entry T if its Activity sits below 20%, and F for all others.

As a guide, the following entries are already answered.
O=C(OCc1ccccc1)[C@@H]1CCCN1C(=O)CN(c1nc(Cl)nc2[nH]cnc12)C1CC1 : F
NCCCC[C@H](NC(=O)CN(c1nc(Cl)nc2[nH]cnc12)C1CC1)C(=O)O : T

Just wondering, is Activity of O=C(CN(c1nc(Cl)nc2[nH]cnc12)C1CC1)N[C@@H](CCC(=O)OCc1ccccc1)C(=O)OCc1ccccc1 below 20%?
F

Would you kindly repeat that for NC(=O)CC[C@H](NC(=O)CN(c1nc(Cl)nc2[nH]cnc12)C1CC1)C(=O)OCc1ccccc1 ?
F

Would you kindly repeat that for O=C(CN(c1ncnc2c1ncn2C1CCCCO1)C1CC1)N[C@@H](Cc1ccc(O)cc1)C(=O)OCc1ccccc1 (some centres not stated) ?
T

Would you kindly repeat that for O=C(OCc1ccccc1)[C@@H]1CCCN1C(=O)CN(c1ncnc2c1ncn2C1CCCCO1)C1CC1 (some centres not stated) ?
T

----------
Tested on: Mus musculus
Assay: Analgesic activity in ICR mouse assessed as pain threshold variation at 25 umol/kg, po administered as single dose measured after 120 mins by tail flick test relative to control
Assay type: functional
property_label: Activity (%)
# output: bare number, implied unit %

Known results for compounds:
NC(=O)C[C@H](NC(=O)CN(c1nc(Cl)nc2[nH]cnc12)C1CC1)C(=O)O : 17.03
CC(C)[C@H](NC(=O)CN(c1nc(Cl)nc2[nH]cnc12)C1CC1)C(=O)OCc1ccccc1 : 27.33
C[C@H](NC(=O)CN(c1nc(Cl)nc2[nH]cnc12)C1CC1)C(=O)OCc1ccccc1 : 36.13
C[C@@H](O)[C@H](NC(=O)CN(c1nc(Cl)nc2[nH]cnc12)C1CC1)C(=O)O : 37.59
O=C(CN(c1nc(Cl)nc2[nH]cnc12)C1CC1)N[C@@H](Cc1ccc(O)cc1)C(=O)OCc1ccccc1 : 13.65

Attention now shifts to the item below.
What value of Activity has been recorded for this entry: O=C(CN(c1nc(Cl)nc2[nH]cnc12)C1CC1)N[C@@H](Cc1ccc(O)cc1)C(=O)O
23.69

----------
Test system: Mus musculus
Experiment: Analgesic activity in ICR mouse assessed as pain threshold variation at 12.5 umol/kg, po administered as single dose measured after 90 mins by tail flick test relative to control
Assay type: functional
Record Met whenever Activity is at 20% or higher; record Not met when lower.

NCCCC[C@H](NC(=O)CN(c1nc(Cl)nc2[nH]cnc12)C1CC1)C(=O)OCc1ccccc1 : Met

# ---- query compound ----
# bool: Activity of NCCCC[C@H](NC(=O)CN(c1nc(Cl)nc2[nH]cnc12)C1CC1)C(=O)O >= 20%
Met

----------
Test system: Mus musculus
Test: Analgesic activity in ICR mouse assessed as pain threshold variation at 25 umol/kg, po administered as single dose measured after 120 mins by tail flick test relative to control
Format: functional
Mark each entry label 1 if its Activity sits below 10%, and label 0 for all others.

As a guide, the following entries are already answered.
O=C(CN(c1nc(Cl)nc2[nH]cnc12)C1CC1)N[C@@H](Cc1ccccc1)C(=O)O : label 1
O=C(CN(c1ncnc2c1ncn2C1CCCCO1)C1CC1)N[C@@H](CC(=O)OCc1ccccc1)C(=O)OCc1ccccc1 (stereo partly drawn) : label 1
CC(C)(C)OC(=O)NCCCC[C@H](NC(=O)CN(c1ncnc2c1ncn2C1CCCCO1)C1CC1)C(=O)OCc1ccccc1 (stereo partly drawn) : label 0
O=C(CN(c1nc(Cl)nc2[nH]cnc12)C1CC1)N[C@@H](CO)C(=O)OCc1ccccc1 : label 0
CSCC[C@H](NC(=O)CN(c1nc(Cl)nc2[nH]cnc12)C1CC1)C(=O)O : label 1

Just wondering, is Activity of CC[C@H](C)[C@H](NC(=O)CN(c1ncnc2c1ncn2C1CCCCO1)C1CC1)C(=O)OCc1ccccc1 (stereo partly drawn) below 10%?
label 0

Would you kindly repeat that for CCOC(=O)CN(c1nc(Cl)nc2c1ncn2C1CCCCO1)C1CC1 (stereo not drawn) ?
label 0

----------
Listing of recorded Activity by entry.
Tested on: Mus musculus
Test: Analgesic activity in ICR mouse assessed as pain threshold variation at 25 umol/kg, po administered as single dose measured after 120 mins by tail flick test relative to control
Type: functional
# output: bare number, implied unit %

Known results for compounds:
O=C(CN(c1ncnc2c1ncn2C1CCCCO1)C1CC1)N[C@@H](CCC(=O)OCc1ccccc1)C(=O)OCc1ccccc1 (some centres undefined) : 20.71
O=C(O)CNC(=O)CN(c1nc(Cl)nc2[nH]cnc12)C1CC1 : 19.81

What value of Activity has been recorded for this entry: NC(=O)C[C@H](NC(=O)CN(c1ncnc2c1ncn2C1CCCCO1)C1CC1)C(=O)OCc1ccccc1 (some centres undefined)
29.15

Would you kindly repeat that for N=C(N)NCCC[C@H](NC(=O)CN(c1nc(Cl)nc2[nH]cnc12)C1CC1)C(=O)O ?
17.03

Would you kindly repeat that for O=C(CN(c1nc(Cl)nc2[nH]cnc12)C1CC1)N[C@@H](Cc1cnc[nH]1)C(=O)OCc1ccccc1 ?
10.15

Would you kindly repeat that for CC(C)C[C@H](NC(=O)CN(c1nc(Cl)nc2[nH]cnc12)C1CC1)C(=O)O ?
18.74

Would you kindly repeat that for CC(C)C[C@H](NC(=O)CN(c1ncnc2c1ncn2C1CCCCO1)C1CC1)C(=O)OCc1ccccc1 (some centres undefined) ?
12.79

Would you kindly repeat that for NC(=O)CC[C@H](NC(=O)CN(c1ncnc2c1ncn2C1CCCCO1)C1CC1)C(=O)OCc1ccccc1 (some centres undefined) ?
22.34

Would you kindly repeat that for CC(C)[C@H](NC(=O)CN(c1nc(Cl)nc2[nH]cnc12)C1CC1)C(=O)O ?
17.06

----------
Tested on: Mus musculus
Experiment: Analgesic activity in ICR mouse assessed as pain threshold variation at 12.5 umol/kg, po administered as single dose measured after 30 mins by tail flick test relative to control
Format: functional
Record yes whenever Activity is at 20% or higher; record no when lower.

O=C(CN(c1nc(Cl)nc2[nH]cnc12)C1CC1)NCC(=O)OCc1ccccc1 : no
N=C(N)NCCC[C@H](NC(=O)CN(c1nc(Cl)nc2[nH]cnc12)C1CC1)C(=O)O : yes
NCCCC[C@H](NC(=O)CN(c1nc(Cl)nc2[nH]cnc12)C1CC1)C(=O)OCc1ccccc1 : no
NCCCC[C@H](NC(=O)CN(c1nc(Cl)nc2[nH]cnc12)C1CC1)C(=O)O : no
CC(C)C[C@H](NC(=O)CN(c1nc(Cl)nc2[nH]cnc12)C1CC1)C(=O)O : no

# ---- query compound ----
# bool: Activity of CC(C)[C@H](NC(=O)CN(c1nc(Cl)nc2[nH]cnc12)C1CC1)C(=O)OCc1ccccc1 >= 20%
no

----------
Listing of recorded Activity by entry.
Test system: Mus musculus
Assay: Analgesic activity in ICR mouse assessed as pain threshold variation at 25 umol/kg, po administered as single dose measured after 150 mins by tail flick test relative to control
Type: functional

Known results for compounds:
O=C(CN(c1ncnc2c1ncn2C1CCCCO1)C1CC1)N[C@@H](Cc1c[nH]c2ccccc12)C(=O)OCc1ccccc1 (some centres undefined) : 11.45%
NCCCC[C@H](NC(=O)CN(c1nc(Cl)nc2[nH]cnc12)C1CC1)C(=O)OCc1ccccc1 : 9.88%

What value of Activity has been recorded for this entry: O=C(CN(c1nc(Cl)nc2[nH]cnc12)C1CC1)N[C@@H](Cc1ccccc1)C(=O)OCc1ccccc1
10.73%

Would you kindly repeat that for O=C(CN(c1nc(Cl)nc2[nH]cnc12)C1CC1)N[C@@H](Cc1ccccc1)C(=O)O ?
6.09%

----------
Tested on: Mus musculus
Test: Analgesic activity in ICR mouse assessed as pain threshold variation at 25 umol/kg, po administered as single dose measured after 150 mins by tail flick test relative to control
Type: functional
Listing of recorded Activity by entry.
Kindly write the number and append the unit.

Known results for compounds:
N=C(N)NCCC[C@H](NC(=O)CN(c1nc(Cl)nc2[nH]cnc12)C1CC1)C(=O)OCc1ccccc1 : 6.12%
NC(=O)C[C@H](NC(=O)CN(c1nc(Cl)nc2[nH]cnc12)C1CC1)C(=O)O : 7.51%
O=C(CN(c1ncnc2c1ncn2C1CCCCO1)C1CC1)NCC(=O)OCc1ccccc1 (centres undefined) : 7.26%

Attention now shifts to the item below.
Request - read-out Activity | tested on Mus musculus | compound CC(C)(C)OC(=O)NCCCC[C@H](NC(=O)CN(c1ncnc2c1ncn2C1CCCCO1)C1CC1)C(=O)OCc1ccccc1 (some centres undefined)
17.2%

----------
Listing of recorded Activity by entry.
Test system: Mus musculus
Assay: Analgesic activity in ICR mouse assessed as pain threshold variation at 25 umol/kg, po administered as single dose measured after 120 mins by tail flick test relative to control
Format: functional
# output: bare number, implied unit %

O=C(CN(c1ncnc2c1ncn2C1CCCCO1)C1CC1)NCC(=O)OCc1ccccc1 (configuration not stated) : 17.23
C[C@H](NC(=O)CN(c1ncnc2c1ncn2C1CCCCO1)C1CC1)C(=O)OCc1ccccc1 (some centres not stated) : 25.3
O=C(CN(c1nc(Cl)nc2[nH]cnc12)C1CC1)N[C@@H](Cc1c[nH]c2ccccc12)C(=O)OCc1ccccc1 : 21.51

What value of Activity has been recorded for this entry: O=C(O)[C@@H]1CCCN1C(=O)CN(c1nc(Cl)nc2[nH]cnc12)C1CC1
23.61
